# credit: patent US10493027B2

- ASSAY COMMENT: Nalbuphine bioavailability study (Example 14)
- CONDITION DESCRIPTION: human, plasma, other: intranasal, 16.8 mg
Where a name gives a salt, the structure may show the parent alone.
MEASURED PARAMETER: bioavailability

Return bioavailability (reported value) for this compound: Oc1ccc2c3c1O[C@H]1[C@@H](O)CC[C@@]4(O)[C@@H](C2)N(CC2CCC2)CC[C@]314 [nalbuphine hydrochloride]
> 200%
